target: Trifunctional purine biosynthetic protein adenosine-3 (Homo sapiens); assay: Compound was evaluated for the ability to inhibit Glycinamide ribonucleotide formyltransferase from Manca cells.
Sequence (P22102 whole entry): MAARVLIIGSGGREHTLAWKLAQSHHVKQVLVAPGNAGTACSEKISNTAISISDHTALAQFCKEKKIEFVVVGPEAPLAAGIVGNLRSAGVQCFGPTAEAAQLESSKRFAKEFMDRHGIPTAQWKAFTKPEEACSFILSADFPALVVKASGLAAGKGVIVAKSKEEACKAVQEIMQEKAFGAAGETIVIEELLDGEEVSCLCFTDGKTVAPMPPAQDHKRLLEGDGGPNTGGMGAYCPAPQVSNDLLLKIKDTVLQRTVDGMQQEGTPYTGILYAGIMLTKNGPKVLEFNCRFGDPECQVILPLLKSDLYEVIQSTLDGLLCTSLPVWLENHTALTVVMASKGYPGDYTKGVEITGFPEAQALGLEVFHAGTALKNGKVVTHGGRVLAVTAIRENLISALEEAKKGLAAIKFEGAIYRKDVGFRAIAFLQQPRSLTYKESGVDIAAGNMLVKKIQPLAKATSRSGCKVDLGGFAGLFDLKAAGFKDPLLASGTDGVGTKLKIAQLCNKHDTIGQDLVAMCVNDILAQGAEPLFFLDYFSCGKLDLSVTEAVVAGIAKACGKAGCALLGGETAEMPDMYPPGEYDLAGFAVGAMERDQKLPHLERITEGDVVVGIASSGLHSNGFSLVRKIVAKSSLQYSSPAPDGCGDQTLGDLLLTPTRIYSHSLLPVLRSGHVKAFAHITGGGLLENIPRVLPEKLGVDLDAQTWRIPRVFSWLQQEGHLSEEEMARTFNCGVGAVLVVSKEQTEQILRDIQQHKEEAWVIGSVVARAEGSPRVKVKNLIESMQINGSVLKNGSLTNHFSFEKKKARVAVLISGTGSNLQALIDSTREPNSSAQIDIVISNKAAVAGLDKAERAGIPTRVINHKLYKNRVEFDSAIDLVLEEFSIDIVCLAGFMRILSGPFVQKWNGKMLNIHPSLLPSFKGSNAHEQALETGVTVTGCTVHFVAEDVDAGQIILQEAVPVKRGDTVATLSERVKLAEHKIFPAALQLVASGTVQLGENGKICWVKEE
MEASUREMENT LABEL: IC50

### Prompt What value of IC50 has been reported for the following compound? Nc1nc2c(c(=O)[nH]1)C1CN(c3ccc(C(=O)NC(CCC(=O)O)C(=O)O)cc3)CCC1CN2 (stereo unspecified)
### Response > 20 µM
